# Target under test: Neuronal acetylcholine receptor; alpha4/beta2 (Homo sapiens) (UniProt P17787+P43681)
# Assay notes: Percent agonist activity relative to 10 uM (-)-nicotine at human nicotinic acetylcholine receptor alpha4-beta2 at 10 uM
# Assay type: functional
Endpoint: Response (%)
# number only, unit % dropped from output

Record request: Response value, item "c1ccc2c(c1)C1CNCC2C1"
0

What do we get for "c1cnc2cc3c(cc2n1)[C@@H]1CNC[C@H]3C1" ?
68

What do we get for O=[N+]([O-])c1ccc2c(c1)C1CNCC2C1 (racemic) ?
65

What do we get for O=c1cccc2n1C[C@@H]1CNC[C@H]2C1 (single isomer, unassigned) [CYTISINICLINE] ?
56

What do we get for CN1CCC[C@H]1c1cccnc1 [NICOTINE] ?
100
